Tested on: Wnt5a (protein binding on small-molecule microarray)
Test: Wnt5a binders on small-molecule microarray, primary screen, biophysical, 635/667 nm fluorescence (AID 1142);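 note: fluorescence read at 667 nm with signal to noise per printed feature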
Details: 635 nm fluorescence, higher = more signal
Please respond with reported composite z-score for every item in the list.
Reply with just the number.

So what does the record say about composite z-score for O=C(NN=C1C[C@@H](O)[C@@H](O)[C@@H]2[C@@H]3C(=O)N(c4cccc(Oc5ccccc5)c4)C(=O)[C@@H]3CC[C@H]12)OCc1ccccc1 ?
-0.132

Recorded composite z-score of CC(C)CON=C1C[C@@H](O)[C@@H](O)[C@@H]2[C@@H]3C(=O)N([C@@H](C)c4ccccc4)C(=O)[C@@H]3CC[C@H]12 , please.
0.257

Requested read-out: composite z-score. Entry: COC(=O)C1(C)C=C2C(=C(c3ccccc3)C(=O)C2C)CN1 (configuration not stated)
0.0106

Look at this compound and give its reported composite z-score. C#CCCCON=C1C[C@@H](O)[C@@H](O)[C@@H]2[C@@H]3C(=O)N(CCC(=O)OCC)C(=O)[C@@H]3CC[C@@H]12
0.109

composite z-score lookup needed for COC(=O)[C@H](C)NC(=O)CCC1CC(OC(=O)NCc2cccc3ccccc23)CC2(CCCC(COC(=O)NCC3CCCCC3)O2)O1 (some centres not stated) , thanks.
0.835

Given the compound COc1ccc(O[C@H]2C=C[C@@H](c3ccccc3)O[C@@H]2COC(=O)CCC(C)=NOC(C)CN2CCCCc3nc(C)c(C)cc32)cc1 (some centres not stated) , what is its reported composite z-score?
-0.133

Which value of composite z-score has been reported for COc1ccccc1CN1C(=O)c2ccccc2[C@@]2(Cc3ccccc3N(C(C)C)C2=O)[C@@H]1c1ccc(CO)cc1 in the records?
-0.458

---

Test: MM1S myeloma cell viability, profiling panel, resazurin fluorescence, basal, 24 h, PK04 Diversity Set (AID 1174);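 note: MM1S multiple myeloma cell line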
Conditions: higher = more signal, called active from +8 up or from −8 down
Assay endpoint: z-score
Please reply with the value in numeric form only.

Could you tell me which z-score is on file for CC[C@@H](c1ccccc1)n1c(=O)n2n(c1=O)[C@H]1[C@H](O)[C@@H]3O[C@@H]3C(=NOCC(C)C)[C@H]1CC2 ?
-0.349

// z-score lookup, key: CCCNC(=O)[C@@H]1c2ccccc2C(=O)N(Cc2ccccc2Cl)[C@H]1c1ccc(CO)cc1
0.496

Fill in: z-score of COc1ccc(O[C@H]2C=C[C@@H](c3ccccc3)O[C@@H]2COC(=O)CCC(C)=NO[C@@H](C)c2cc(-c3c(C)cc(C)cc3C)no2)cc1 is ___
0.622

Given the entry O=C1C2C=CC(C(O)c3ccc([N+](=O)[O-])cc3)N(Nc3ccc([N+](=O)[O-])cc3)C2C(=O)N1c1ccccc1 (stereo not drawn) , report its measured z-score.
-0.858

Which z-score is reported for this compound? CC(C)=C1C(=O)C(c2ccccc2)=C2CN3C(=O)N(CCc4ccccc4)C(=O)[C@]3(Cc3ccc(F)cc3)[C@H]21
-1.53

If you can, please state the reported z-score value of COC(=O)[C@@H]1CC[C@H](C)[C@@H](c2ccc(C)cc2)N1C(=O)c1ccc(C=NOC(C)CN2CCCCc3nc(C)c(C)cc32)cc1 (stereo partly drawn) .
-0.725

Requested field: z-score. Item: COC(=O)[C@@H]1CCCN1C(=O)[C@@H](C)CO
-0.379

Quick one: z-score for CO[C@@H]1COC(=O)[C@H](C)NC(=O)[C@@H](C)COC(=O)CCC[C@H]1C ?
-0.516

---

So I've got a bunch of molecules here, and I need their composite z-score values.
Target: Pro-neuregulin-1, membrane-bound isoform (Homo sapiens) (UniProt Q02297)
Sequence (Q02297 whole entry, looked up, canonical isoform): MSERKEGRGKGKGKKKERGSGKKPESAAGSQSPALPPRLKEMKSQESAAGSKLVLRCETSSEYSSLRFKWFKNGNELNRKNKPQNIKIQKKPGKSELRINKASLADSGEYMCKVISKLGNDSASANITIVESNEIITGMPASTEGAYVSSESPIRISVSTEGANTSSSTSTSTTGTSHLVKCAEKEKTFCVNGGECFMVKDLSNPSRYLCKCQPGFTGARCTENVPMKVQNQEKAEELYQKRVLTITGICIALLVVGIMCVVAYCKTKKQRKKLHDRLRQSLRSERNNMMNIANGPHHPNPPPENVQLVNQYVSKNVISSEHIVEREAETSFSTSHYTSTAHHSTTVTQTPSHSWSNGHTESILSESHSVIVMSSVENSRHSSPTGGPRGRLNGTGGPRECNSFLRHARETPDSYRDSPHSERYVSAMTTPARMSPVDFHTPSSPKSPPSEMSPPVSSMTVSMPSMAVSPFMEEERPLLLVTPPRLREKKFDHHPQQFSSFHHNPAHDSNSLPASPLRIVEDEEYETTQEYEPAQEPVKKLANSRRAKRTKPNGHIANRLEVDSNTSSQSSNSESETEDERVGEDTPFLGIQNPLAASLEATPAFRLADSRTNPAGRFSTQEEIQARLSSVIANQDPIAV
Assay: NRG1 binders on small-molecule microarrays, primary screen, psychiatric disease protein project, biochemical, small-molecule microarray, fluorescence 635/667 (AID 1075);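 note: score combines 667 nm spot fluorescence with signal to noise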
Conditions: NRG1 binding, 635 nm fluorescence, higher = more signal

Fill in the blank: the reported composite z-score of O[C@@H](Cc1ccccc1)[C@H]1C2C=CCCC(c3ccccc3)=C2CN1Cc1cccc(Cl)c1 (some centres undefined) is ____.
1.08

Reported composite z-score, molecule CCCNC(=O)[C@@H]1c2ccccc2C(=O)N(Cc2ccccc2Cl)[C@H]1c1ccc(CO)cc1 : ____
0.963

What does the data say about its composite z-score? Entry: Cc1cc2c(c(=O)o1)[C@H](O)[C@H]1O[C@H]1C2=O
-0.262

So what does the record say about composite z-score for COc1ccc(O[C@@H]2[C@H](O)CO[C@H]2C=CC#Cc2ccccc2)cc1 ?
0.068

Please look up its composite z-score: COc1ccc([Si](C)(C)[C@@H]2[C@@H](CCO)O[C@]3(C(=O)N(Cc4ccc(NC(C)=O)cc4)c4ccccc43)[C@H]2C)cc1
1.66

Given the entry CCOC(=O)CCN1C(=O)[C@H]2[C@H]3[C@H](O)[C@H](O)CC(=NOC[C@@H](O)COCc4ccco4)[C@@H]3CC[C@H]2C1=O , report its measured composite z-score.
-0.21

Name the reported composite z-score value associated with the molecule CCc1cc2c(nc1CC)CCN(CCC(C)=NO[C@@H](C)c1cc(-c3c(C)cc(C)cc3C)no1)C2
0.191

Could you tell me which composite z-score is on file for CCN1C(=O)[C@H]2[C@H]3[C@H](O)C=CC(=O)[C@@H]3CC[C@H]2C1=O ?
-0.132

# lookup: composite z-score of CCCCc1nc2c(c3c1C[C@H](C)OC3)CN(CCC(C)C)CC2
0.788

---

For each entry below, report its composite z-score value.
Test system: XIP peptide (Xip251-270) binding
Assay: small-molecule binders of XIP peptide, primary screen, biochemical, small-molecule microarray, fluorescence 635/667 nm, 0.1 µg/mL protein (AID 1182)
Conditions: fluorescent protein binding, 635 nm, higher = more signal, called active from +8 up or from −8 down
Kindly provide the number alone.

Find the recorded composite z-score belonging to COCCCNC(=O)[C@@]1(Sc2ccc(C)cc2)CC(=O)N(Cc2ccccc2)[C@@H]1c1ccc(CO)cc1I and report it.
-0.453

Quick one: composite z-score of O=C1O[C@@H](c2ccccc2)[C@@H](c2ccccc2)N2[C@@H](c3ccc(OCCO)cc3)[C@]3(C(=O)Nc4ccc(C#CCCO)cc43)[C@@H](C(=O)N3CCCCCCC3)[C@H]12 ?
2.93

# query: composite z-score of entry Cc1ccc(S(=O)(=O)N[C@@H]2COC(=O)[C@H](C)COC(=O)CC=C[C@H]2C)cc1
-0.396

# query: composite z-score of entry CCCC[C@@H](O)C1=C(C)C[C@H]2C(=O)N(Cc3ccccc3)C(=O)[C@H]2[C@H]1CO
-0.38

Given the entry COCCOC(=O)N1C(=O)[C@@]2(c3cc(C#CC4(O)CCCCCC4)ccc31)[C@H](C(=O)N1CCN(c3ncccn3)CC1)[C@H]1C(=O)O[C@H](c3ccccc3)[C@H](c3ccccc3)N1[C@@H]2c1ccc(OCCO)cc1 , report its measured composite z-score.
-0.128

Please report the recorded composite z-score for CCCNC(=O)OC[C@H]1O[C@H](CCON=CC[C@@H]2C=C[C@H](OC(C)=O)[C@@H](COC(C)=O)O2)C=C[C@@H]1Oc1ccc(OC)cc1 .
0.27

What does the data say about its composite z-score? Entry: CO[C@H]1COC(=O)[C@H](C)COC(=O)CC=C[C@@H](C)[C@H](OC)COC(=O)CC=C[C@@H]1C
0.159

Reported composite z-score, molecule C=CCOC(=O)[C@H]1[C@@H]2C(=O)O[C@@H](c3ccccc3)[C@@H](c3ccccc3)N2[C@@H](c2ccc(OCCOC(=O)[C@H]3C[C@H]4C(=O)N5CCC[C@H]5C(=O)N4[C@H]3c3cccc(OCCO)c3)cc2)[C@]12C(=O)Nc1ccc(I)cc12 : ____
2.54

Would you kindly share the measured composite z-score for O=C1[C@H]2[C@H]3[C@H](O)[C@H](O)CC(=NOC[C@@H](O)COCc4ccco4)[C@H]3CC[C@H]2C(=O)N1c1cccc(Oc2ccccc2)c1 ?
0.283

Fill blank: measured composite z-score of the molecule C=CC[C@@H]1C=C[C@H](ON=C(C)CCN2CCc3nc(CC)c(CC)cc3C2)[C@@H](CO)O1 is ____.
0.0621

What does the record list as composite z-score for CCOC(=O)C1=CCC(c2cc3ccccc3[nH]2)NC1 (centres undefined) ?
-0.0143

Given the molecule COc1ccc([Si](C)(C)[C@H]2[C@H](CC(=O)N3CCC[C@H]3CO)O[C@@]3(C(=O)N(Cc4cccc(N5C(=O)COc6ccccc65)c4)c4ccccc43)[C@@H]2C)cc1 , what is its reported composite z-score?
0.422

Please report the recorded composite z-score for COC(=O)[C@H](C)NC(=O)CCC1CC(OC(=O)NCc2ccc3c(c2)OCO3)CC2(CCCC(COC(=O)NCCOc3ccccc3)O2)O1 (some centres undefined) .
-0.045

Which composite z-score is listed for COC(=O)C1=C(C)[C@@H](O)[C@@H](C)[C@H](c2c(OC)c(OC)c(C)c(OC)c2OC)O1 ?
-0.252
